Entry source: patent US12466812B2

# target system: FGFR3 mutant (V555M) (Homo sapiens, UniProt P22607, V555M)
# Sequence (P22607 23-806 V555M): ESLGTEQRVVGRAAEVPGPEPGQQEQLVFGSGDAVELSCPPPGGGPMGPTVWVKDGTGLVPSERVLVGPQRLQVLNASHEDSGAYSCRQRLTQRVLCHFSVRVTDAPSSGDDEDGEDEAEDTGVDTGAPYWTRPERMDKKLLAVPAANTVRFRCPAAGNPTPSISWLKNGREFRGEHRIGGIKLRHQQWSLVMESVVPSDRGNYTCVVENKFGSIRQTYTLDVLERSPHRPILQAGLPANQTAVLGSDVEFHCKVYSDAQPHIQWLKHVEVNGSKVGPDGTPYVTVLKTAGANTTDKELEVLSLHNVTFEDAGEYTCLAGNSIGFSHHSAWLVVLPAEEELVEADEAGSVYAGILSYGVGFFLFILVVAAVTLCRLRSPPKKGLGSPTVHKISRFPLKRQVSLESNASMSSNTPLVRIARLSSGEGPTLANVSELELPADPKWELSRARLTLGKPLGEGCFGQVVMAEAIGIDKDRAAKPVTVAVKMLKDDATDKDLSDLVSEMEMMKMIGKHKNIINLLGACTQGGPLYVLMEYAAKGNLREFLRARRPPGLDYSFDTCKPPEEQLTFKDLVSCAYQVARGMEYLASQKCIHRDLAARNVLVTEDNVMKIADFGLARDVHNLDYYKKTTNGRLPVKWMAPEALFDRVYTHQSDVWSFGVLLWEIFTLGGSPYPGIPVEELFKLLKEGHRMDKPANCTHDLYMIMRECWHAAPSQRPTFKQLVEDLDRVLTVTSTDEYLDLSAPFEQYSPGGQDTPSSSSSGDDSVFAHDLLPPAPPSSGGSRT
# protocol notes: Pan-FGFR mutant enzymatic activity
# condition summary: mutant enzyme
pIC50: −log10 of the molar value.
Here, each record is paired with measured pIC50 data.

Worked set:
CCN1CCN(c2cccc(Nc3ncnc(-c4cccnc4Nc4c(Cl)c(OC)cc(OC)c4Cl)n3)c2)CC1 [Example 8]: 6.00 to 7.00
COc1cc(OC)c(Cl)c(Nc2ncccc2-c2ncnc(Nc3cnn(C4CCNCC4)c3)n2)c1Cl [Example 24]: 6.00 to 7.00
COc1cc(OC)c(Cl)c(Nc2ncccc2-c2ncnc(Nc3cnn(C4CCN(C(C)C)CC4)c3)n2)c1Cl [Example 22]: > 7.00

Task: // lookup pIC50 for COc1cc(OC)c(Cl)c(Nc2ncccc2-c2ncnc(Nc3ccc(N4C[C@@H](C)N[C@@H](C)C4)cc3)n2)c1Cl [Example 13]
Result: 6.00 to 7.00

Task: // lookup pIC50 for CCN1CCN(c2ccc(Nc3ncnc(-c4cccnc4Nc4c(Cl)c(OC)cc(OC)c4Cl)n3)cc2)CC1 [Example 1]
Result: 6.00 to 7.00
